This collection of values is drawn from patent US20260132129A1.

Target: PI3Kα H1047R (T47D cells) (Homo sapiens, UniProt P42336, H1047R)
Construct: endogenous in cells; host or cells: T47D cells
Sequence (P42336 whole entry H1047R): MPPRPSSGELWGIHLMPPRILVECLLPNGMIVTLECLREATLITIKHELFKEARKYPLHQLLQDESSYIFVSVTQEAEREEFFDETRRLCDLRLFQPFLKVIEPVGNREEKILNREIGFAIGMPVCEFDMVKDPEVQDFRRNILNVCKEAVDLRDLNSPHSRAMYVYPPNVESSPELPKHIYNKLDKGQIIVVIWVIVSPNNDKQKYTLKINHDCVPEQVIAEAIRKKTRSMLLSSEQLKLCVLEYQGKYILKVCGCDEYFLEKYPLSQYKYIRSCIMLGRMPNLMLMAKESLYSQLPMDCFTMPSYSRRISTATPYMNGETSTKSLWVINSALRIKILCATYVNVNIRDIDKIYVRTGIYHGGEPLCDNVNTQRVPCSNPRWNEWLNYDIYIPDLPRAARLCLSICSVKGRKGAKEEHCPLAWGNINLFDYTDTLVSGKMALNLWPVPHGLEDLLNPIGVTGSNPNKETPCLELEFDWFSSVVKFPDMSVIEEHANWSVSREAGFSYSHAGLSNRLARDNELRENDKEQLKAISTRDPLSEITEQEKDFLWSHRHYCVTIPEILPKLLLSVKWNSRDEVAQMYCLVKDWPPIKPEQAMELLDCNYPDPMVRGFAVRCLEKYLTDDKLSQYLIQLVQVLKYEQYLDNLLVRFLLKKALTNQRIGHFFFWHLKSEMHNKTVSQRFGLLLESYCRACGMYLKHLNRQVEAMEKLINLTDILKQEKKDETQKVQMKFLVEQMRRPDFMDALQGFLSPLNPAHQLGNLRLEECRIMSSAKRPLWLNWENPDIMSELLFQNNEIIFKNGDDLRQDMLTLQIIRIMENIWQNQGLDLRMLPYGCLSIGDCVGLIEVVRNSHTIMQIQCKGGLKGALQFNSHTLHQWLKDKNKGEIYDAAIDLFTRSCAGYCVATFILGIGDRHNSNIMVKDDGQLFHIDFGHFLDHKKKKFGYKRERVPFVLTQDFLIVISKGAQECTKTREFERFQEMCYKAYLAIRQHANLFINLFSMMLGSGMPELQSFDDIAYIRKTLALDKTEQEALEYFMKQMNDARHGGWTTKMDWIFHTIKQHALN
Sequence (P27986 whole entry partner): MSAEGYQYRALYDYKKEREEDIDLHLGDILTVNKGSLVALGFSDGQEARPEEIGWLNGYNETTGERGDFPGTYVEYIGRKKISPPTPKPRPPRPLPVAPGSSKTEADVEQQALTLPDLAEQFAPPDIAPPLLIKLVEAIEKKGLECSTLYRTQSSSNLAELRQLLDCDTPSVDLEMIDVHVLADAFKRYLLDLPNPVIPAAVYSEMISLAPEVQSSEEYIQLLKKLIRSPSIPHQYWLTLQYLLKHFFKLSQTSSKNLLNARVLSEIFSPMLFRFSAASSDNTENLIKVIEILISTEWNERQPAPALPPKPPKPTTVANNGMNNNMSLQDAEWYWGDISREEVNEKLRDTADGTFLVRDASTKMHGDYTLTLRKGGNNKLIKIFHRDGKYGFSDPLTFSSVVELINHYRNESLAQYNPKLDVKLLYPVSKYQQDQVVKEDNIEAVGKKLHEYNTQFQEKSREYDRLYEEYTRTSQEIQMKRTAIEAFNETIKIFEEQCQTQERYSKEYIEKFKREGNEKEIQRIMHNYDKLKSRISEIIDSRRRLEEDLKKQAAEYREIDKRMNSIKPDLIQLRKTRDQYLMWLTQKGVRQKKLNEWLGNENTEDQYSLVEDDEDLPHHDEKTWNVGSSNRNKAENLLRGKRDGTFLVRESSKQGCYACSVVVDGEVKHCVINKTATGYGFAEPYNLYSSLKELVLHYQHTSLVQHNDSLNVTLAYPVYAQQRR
Assay: PI3Kα cellular assay: pAKT HTRF in T47D cells after EGF stimulation
Assay type: cell-based
Settings: selectivity of T47D (H1047R) over SKBR3 (WT) pAKT IC50
Protocol: SKBR3 or T47D cells are seeded in DMEM containing 10% FBS at 25k cells/well into 96-well cell culture format. […] 384 well plate is left overnight at room temperature before reading HTRF on an Envision plate reader. ND denotes value not determined with that assay for the specified compound; • for T47D (H1047R) selectivity over SKBR3 (WT): A denotes >20-fold; B denotes 20-fold≥value>5-fold; C denotes ≤5-fold. […] ND denotes value not determined with that assay for the specified compound.
observed.property: T47D pAKT S473 HTRF IC50 (H1047R): T47D (H1047R) selectivity over SKBR3 (WT)

| compound | reported.result |
| --- | --- |
| Cc1cc([C@H](C)Nc2ccccc2C(=O)O)c2nc(-c3cc(C(N)=O)c4[nH]ccc4c3)cc(=O)n2c1 [Compound 754] | C (C denotes ≤5-fold) |
| Cc1cc([C@@H](C)Nc2ccccc2C(=O)O)c2nc(-c3ccc4c(C)nn(C)c4c3)c(C)c(=O)n2c1 [Compound 927] | A (A denotes >20-fold) |
| Cc1cc(C(C)CNc2ccccc2C(=O)O)c2nc(N3CCOCC3)cc(=O)n2c1 (stereo not shown) [Compound 735] | C (C denotes ≤5-fold) |
| Cc1cc([C@@H](C)N[C@@H](C(=O)O)c2ccccc2)c2nc(N3CCOCC3)cc(=O)n2c1 [Compound 649] | C (C denotes ≤5-fold) |
| Cc1cc(C(C)Nc2ccccc2C(=O)O)c2nc(-c3c(C)ccc4c3cnn4C)cc(=O)n2c1 (stereo not shown) [Compound 817] | C (C denotes ≤5-fold) |
| Cc1cc(C(C)CNc2ccccc2C(=O)O)c2nc(N3CCOCC3)cc(=O)n2c1 (stereo not shown) [Compound 929] | C (C denotes ≤5-fold) |
| Cc1cc([C@@H](C)NC2=C(C(=O)O)C=CCC2)c2nc(-c3ccc(CC4CCN(C(=O)C5CC5)CC4)nc3)cc(=O)n2c1 [Compound 783] | C (C denotes ≤5-fold) |
| Cc1cc([C@@H](C)Nc2ccccc2C(=O)O)c2nc(-c3ccc4c(C)cn(C)c4c3)c(C)c(=O)n2c1 [Compound 984] | A (A denotes >20-fold) |
| Cc1cc([C@H](C)Nc2ccccc2C(=O)O)c2nc(-c3ccc4c(c3)c(C)nn4C)cc(=O)n2c1 (single isomer, unassigned) [Compound 740] | A (A denotes >20-fold) |
| CCC(=O)Nc1ccc(C(=O)O)c(NC(C)c2cc(C)cn3c(=O)cc(N4CCOCC4)nc23)c1 (stereo not shown) [Compound 791] | C (C denotes ≤5-fold) |
| Cc1cc([C@@H](C)Nc2ccccc2C(=O)O)c2nc(-c3ccc4c(c3)c(C#N)nn4C3CC3)c(C)c(=O)n2c1 [Compound 1048] | A (A denotes >20-fold) |
| Cc1cc([C@H](C)N[C@@H](C(=O)O)c2ccccc2)c2nc(N3CCOCC3)cc(=O)n2c1 [Compound 651] | C (C denotes ≤5-fold) |
| CC(=O)c1ccc(-c2cc(=O)n3cc(C)cc([C@@H](C)Nc4ccccc4C(=O)O)c3n2)cc1 [Compound 660] | A (A denotes >20-fold) |
| Cc1cc(C(C)Nc2cccc3c2S(=O)(=O)NC3=O)c2nc(N3Cc4ccccc4C3)cc(=O)n2c1 (stereo not shown) [Compound 998] | C (C denotes ≤5-fold) |
| Cc1cc([C@H](C)Nc2ccccc2C(=O)O)c2nc(-c3ccc4c(c3)c(C#N)nn4C3CC3)c(C)c(=O)n2c1 [Compound 1049] | C (C denotes ≤5-fold) |
| Cc1cc([C@@H](C)Nc2ccccc2C(=O)O)c2nc(-c3cccnc3)c(C)c(=O)n2c1 (single isomer, unassigned) [Compound 949] | A (A denotes >20-fold) |
| Cc1cc(C(C)Nc2cccc3[nH]nnc23)c2nc(N3CCOCC3)cc(=O)n2c1 (stereo not shown) [Compound 743] | A (A denotes >20-fold) |
| Cc1cc([C@H](C)Nc2ccccc2C(=O)O)c2nc(-c3cnc4c(c3)c(C)cn4C)c(C)c(=O)n2c1 [Compound 1051] | C (C denotes ≤5-fold) |

---

target: PI3Kα H1047R (T47D cells) (Homo sapiens, UniProt P42336, H1047R); construct: endogenous in cells; host or cells: T47D cells; experiment: PI3Kα cellular assay: pAKT HTRF in T47D cells after EGF stimulation; assay type: cell-based; conditions: selectivity T47D (H1047R) over SKBR3 (WT), pAKT HTRF
observed.property: T47D pAKT S473 HTRF IC50 (H1047R): T47D (H1047R) selectivity over SKBR3 (WT)

| molecule | reported.result |
| --- | --- |
| Cc1cc([C@H](C)Nc2ccccc2C(=O)O)c2nc(OC3CCOCC3)c(C)c(=O)n2c1 (single isomer, unassigned) | A (A denotes >20-fold) |
| Cc1cc([C@H](C)Nc2ccccc2C(=O)O)c2nc(-c3ccccc3)cc(=O)n2c1 [Compound 423] | C (C denotes ≤5-fold) |
| Cc1cc([C@H](C)Nc2ccccc2C(=O)O)c2nc(-c3ccc4nc(CO)[nH]c4c3)cc(=O)n2c1 | C (C denotes ≤5-fold) |
| Cc1cc(C(C)Nc2ccccc2S(N)(=O)=O)c2nc(-c3ccc(F)cc3)cc(=O)n2c1 (stereo not shown) [Compound 585] | C (C denotes ≤5-fold) |
| COc1ccc(-c2nc3c([C@@H](C)Nc4ccccc4C(=O)O)cc(C)cn3c(=O)c2C)cc1 | A (A denotes >20-fold) |
| Cc1cc([C@@H](C)Nc2ccccc2C(=O)O)c2nc(-c3cnc(C4CCOCC4)nc3)c(C)c(=O)n2c1 | A (A denotes >20-fold) |
| Cc1cc([C@@H](C)Nc2ccccc2C(=O)O)c2nc(-c3ccc(C4CCOCC4)nc3)c(C)c(=O)n2c1 | A (A denotes >20-fold) |
| Cc1cc(C(C)Nc2ccccc2)c2nc(-c3ccc(F)cc3)c(C)c(=O)n2c1 (stereo not shown) | C (C denotes ≤5-fold) |
| Cc1cc([C@H](C)Nc2ccccc2C(=O)O)c2nc(-c3ccc4[nH]cnc4c3)cc(=O)n2c1 | C (C denotes ≤5-fold) |
| Cc1cc([C@H](C)Nc2ccccc2C(N)=O)c2nc(-c3ccc4c(C)cn(C)c4c3)c(C)c(=O)n2c1 | C (C denotes ≤5-fold) |
| Cc1cc([C@H](C)Nc2ccccc2C(=O)O)c2nc(-c3ccccc3)cc(=O)n2c1 [Compound 629] | A (A denotes >20-fold) |
| Cc1cc([C@H](C)Nc2ccccc2C(=O)O)c2nc(-c3ccc(-c4ccc5c(c4)CCO5)c(F)c3)c(C)c(=O)n2c1 | C (C denotes ≤5-fold) |
| Cc1cc([C@H](C)Nc2ccccc2C(=O)O)c2nc(N3CCO[C@H](C)C3)cc(=O)n2c1 | A (A denotes >20-fold) |
| Cc1cc([C@H](C)Nc2ccccc2S(C)(=O)=O)c2nc(-c3ccc4c(C)cn(C)c4c3)c(C)c(=O)n2c1 | C (C denotes ≤5-fold) |
| Cc1cc(C(C)Nc2ccccc2C(=O)O)c2nc(-c3cnc(C4CCOCC4)nc3)c(C)c(=O)n2c1 (stereo not shown) | A (A denotes >20-fold) |
| Cc1cc(C(C)Nc2ccccc2C(=O)O)c2nc(-c3ccc[nH]c3=O)cc(=O)n2c1 (stereo not shown) | C (C denotes ≤5-fold) |

---

molecular target: PI3Kα H1047R (T47D cells) (Homo sapiens, UniProt P42336, H1047R); construct: endogenous in cells; host or cells: T47D cells; test: PI3Kα cellular assay: pAKT HTRF in T47D cells after EGF stimulation; type: cell-based; conditions: T47D cells (PI3Kα H1047R), pAKT S473 HTRF, EGF stimulation

| compound | IC50 |
| --- | --- |
| Cc1cc(C(C)Nc2ccccc2C(=O)O)c2nc(-n3cnc4ccc(O)cc43)cc(=O)n2c1 (stereo not drawn) [Compound 801] | > 2 µM |
| Cc1cc([C@H](C)Nc2ccccc2C(=O)O)c2nc(-c3ccc4c(c(N)nn4C)c3C)c(C)c(=O)n2c1 | 0.1 to 0.5 µM |
| Cc1cc([C@H](C)Nc2ccccc2C(=O)O)c2nc(N3Cc4ccccc4C3)c(C#N)c(=O)n2c1 | 0.1 to 0.5 µM |
| CCn1nc(N)c2c(C)c(-c3cc(=O)n4cc(C)cc([C@H](C)Nc5ccccc5C(=O)O)c4n3)ccc21 | > 2 µM |
| Cc1cc([C@H](C)Nc2ccccc2C(=O)O)c2nc(-c3cnc(C#N)c(Cl)c3)c(C)c(=O)n2c1 [Compound 1084] | > 2 µM |
| Cc1cc([C@H](C)Nc2ccccc2C(=O)O)c2nc(-c3ccc4c(c3)c(N)nn4C)cc(=O)n2c1 | > 2 µM |
| COc1cccc(NC(C)c2cc(C)cn3c(=O)cc(N4Cc5ccccc5C4)nc23)c1CO (stereo not drawn) | > 2 µM |
| Cc1cc([C@@H](C)Nc2ccccc2C(=O)O)c2nc(C3CCOCC3)c(C)c(=O)n2c1 | 0.1 to 0.5 µM |
| Cc1cc([C@@H](C)Nc2ccccc2C(=O)O)c2nc(-c3cc(C)c(F)c(C)c3)cc(=O)n2c1 | 0.1 to 0.5 µM |
| Cc1cc([C@H](C)Nc2ccccc2C(=O)O)c2nc(-c3ccc4ccnn4c3)c(C)c(=O)n2c1 | > 2 µM |
| Cc1cc([C@H](C)Nc2ccccc2C(=O)O)c2nc(-c3ccc4c(C)nn(C5CC5)c4c3)c(C)c(=O)n2c1 | > 2 µM |
| Cc1cc([C@@H](C)Nc2ccccc2-c2ccnnc2)c2nc(-c3cccnc3)c(C)c(=O)n2c1 | > 2 µM |
| Cc1cc([C@H](C)Nc2ccccc2C(=O)O)c2nc(-c3c(C)ccc4c3cnn4C)cc(=O)n2c1 | > 2 µM |
| Cc1cc([C@H](C)Nc2ccccc2C(=O)O)c2nc(-n3cc(C(N)=O)c4ccccc43)cc(=O)n2c1 | > 2 µM |
| Cc1cc([C@@H](C)Nc2ccccc2C2(O)COC2)c2nc(-c3cccc(F)c3)c(C)c(=O)n2c1 | 0.1 to 0.5 µM |
| Cc1cc([C@H](C)Nc2ccccc2C(=O)O)c2nc(-c3ccc4c(c3)c(C)cn4C)c(C)c(=O)n2c1 | 0.5 to 2 µM |
| CCC(=O)Nc1ccc(C(=O)O)c(NC(C)c2cc(C)cn3c(=O)cc(N4CCOCC4)nc23)c1 (stereo not drawn) | > 2 µM |
| Cc1cc(C(C)Nc2ccccc2C(=O)O)c2nc(-c3ccc(C4CCNCC4)nc3)c(C)c(=O)n2c1 (stereo not drawn) | > 2 µM |
| Cc1cc([C@@H](C)Nc2ccccc2C(=O)O)c2nc([C@H]3CCCOC3)c(C)c(=O)n2c1 | < 0.1 µM |
| CC#Cc1nc2c(C(C)Nc3ccccc3C(=O)O)cc(C)cn2c(=O)c1C (stereo not drawn) | 0.5 to 2 µM |
| Cc1cc(C(C)Nc2cc(F)ccc2C(=O)O)c2nc(-c3ccnc(C4CC4)c3)c(C)c(=O)n2c1 (stereo not drawn) | < 0.1 µM |
